Where do the numbers come from? From patent US20190161483A1.

measurement-protocol: Oral gavage toxicity study in dogs for up to 39 weeks
conditions-used: female, dog, in vivo
outcome-measure: AUC(0-t) (ng·h/mL)
All answers are understood in ng·h/mL, so give the number only.

Entry O=C(O)c1cc(F)c2nc(N3C4CC[C@H]3C[C@H](OCc3c(-c5ccccc5OC(F)(F)F)noc3C3CC3)C4)sc2c1 [tropifexor] ; AUC(0-t) = 507

----------
measurement-protocol: Exposure prediction and exposure-response analysis in NASH patients
Format: in vivo, human
conditions-used: human, in vivo, oral, 200 ug; read-out: exposure level (AUC) in NASH patients
outcome-measure: AUC (ng·h/mL)
All answers are understood in ng·h/mL, so give the number only.

Entry O=C(O)c1cc(F)c2nc(N3C4CC[C@H]3C[C@H](OCc3c(-c5ccccc5OC(F)(F)F)noc3C3CC3)C4)sc2c1 [tropifexor] ; AUC = 80
